Where these numbers come from: PubChem BioAssay (NCATS)

# TEST: Quantitative High-Throughput drug screen in 47 multiple myeloma cell lines against the NCATS MIPE library collection: H1112_PLB cell viability assay (AID 1918967; note: nearly all actives have a fitted effect of over 30% in size)
# COND: H1112 myeloma cells viability, ATP luminescence, 48 h; series mostly up to 45.8 µM
Results filed as inconclusive are left out. Calls of active or inactive are those of the source. Calls come from the whole dose curve; as a rule, active = well fitted cell-killing curve with a large enough effect; inconclusive = small, poorly fitted or top-dose-only effect, or effect the other way; inactive = no such curve, though single readings can be large or run the other way.
Outcome field: choose from yes (1) = active, no (0) = inactive

Dear all, I need the recorded test outcome for CN(CCOc1ccc(CC2SC(=O)NC2=O)cc1)c1ccccn1 (configuration not stated) , thank you.
no (0)

// param item: Cc1onc(-c2ccccc2Cl)c1C(=O)N[C@@H]1C(=O)N2[C@@H]1SC(C)(C)[C@@H]2C(=O)O ; yields the recorded call
no (0)

I would be grateful if you could indicate the recorded call for CC(C)C1CCC(C(=O)N[C@H](Cc2ccccc2)C(=O)O)CC1 (some centres not stated) .
no (0)

What is the recorded call for this compound in the test? Cc1ccc(S(=O)(=O)N[C@@H](Cc2ccccc2)C(=O)CCl)cc1
yes (1)

Returns: the outcome recorded for Cc1ncc([N+](=O)[O-])n1CCO in this assay.
no (0)

I would be grateful if you could indicate the recorded call for CC1CC2C3CCC4=CC(=O)C=C[C@]4(C)[C@@]3(F)[C@@H](O)C[C@]2(C)[C@@]1(O)C(=O)CO (some centres not stated) .
no (0)

Please state the recorded outcome for this compound: CNC(=O)c1cc(Oc2ccc(NC(=O)Nc3ccc(Cl)c(C(F)(F)F)c3)cc2)ccn1
yes (1)

* * *

# System: PC49
# TEST: qHTS profiling for inhibitors of Plasmodium falciparum proliferation (AID 504749); note: nearly all actives have a fitted effect of over 60% in size
# COND: P. falciparum in erythrocytes, SYBR Green DNA, 72 h; series mostly up to 28.7 µM
Records with an inconclusive call do not appear. The source made the active and inactive calls. The call rests on the fitted dose curve; in most records, active means well fitted inhibition curve with a large enough effect; inconclusive means small, poorly fitted or top-dose-only effect; inactive means flat fitted curve, though single readings scatter.
Reply using exactly one outcome from active, inactive

What was the test verdict on CNC(=O)c1cc(Oc2ccc(NC(=O)Nc3ccc(Cl)c(C(F)(F)F)c3)cc2)ccn1 ?
active

Check the results log: what was the call for CCOC(=O)[C@H](CCc1ccccc1)N[C@H]1CS[C@H](c2cccs2)CN(CC(=O)O)C1=O ?
inactive

Short answer needed: outcome of this test for CCCN[C@H]1CCc2nc(N)sc2C1 ?
inactive

Recorded call for Cc1oc(=O)oc1CN1CCN(c2cc3c(cc2F)c(=O)c(C(=O)O)c2n3C(C)S2)CC1 (stereo not given) ?
inactive

# outcome recorded in this test, key = CN(C)CCc1c[nH]c2ccc(CS(=O)(=O)N3CCCC3)cc12
inactive

Given COc1cc([C@@H]2c3cc4c(cc3[C@H](O)[C@H]3COC(=O)[C@H]23)OCO4)cc(OC)c1OC , state the outcome it received in this test.
active

For CC(C)NCC(O)c1ccc(NS(C)(=O)=O)cc1 (stereo not given) , which call appears in the assay record?
inactive

Would you mind telling me which call this test gave Nc1nc(N)nc(-c2cc(Cl)ccc2Cl)n1 ?
inactive

Test call for this compound, please: Nc1nc(N)c2nc(CNc3ccc(C(=O)NC(CCC(=O)O)C(=O)O)cc3)cnc2n1 (stereo not given)
inactive

Identify the outcome logged in this assay for the compound shown: NCCCC(O)(P(=O)(O)O)P(=O)(O)O
inactive

* * *

# Tested on: DIV14
# TEST: qHTS profiling for inhibitors of Plasmodium falciparum proliferation (AID 504749); note: nearly all actives have a fitted effect of over 60% in size
# COND: P. falciparum in erythrocytes, SYBR Green DNA, 72 h; series mostly up to 28.7 µM
Results filed as inconclusive are left out. Activity calls are given as the source filed them. Calls follow the shape of the dose curve; as a rule, active = well fitted inhibition curve with a large enough effect; inconclusive = small, poorly fitted or top-dose-only effect; inactive = flat fitted curve, though single readings scatter.
Assign a class; possible classes are True = active, False = inactive

What did the test return for COC(=O)Nc1nc2ccc(Sc3ccccc3)cc2[nH]1 ?
False

Name the outcome recorded for COc1ccc2cc3[n+](cc2c1OC)CCc1cc2c(cc1-3)OCO2 in the assay.
True

Record lookup: outcome of this test for Nc1nc(N)nc(-c2cc(Cl)ccc2Cl)n1 ?
False

Dear all, I need the recorded test outcome for Cc1ncc([N+](=O)[O-])n1CCO , thank you.
False

How did this test come out for CN(C)CCc1c[nH]c2ccc(CS(=O)(=O)N3CCCC3)cc12 ?
False

What classification did COc1cc2c(Nc3ccc(Br)cc3F)ncnc2cc1OCC1CCN(C)CC1 end up with in this test?
True
